# target_under_test: Prostaglandin G/H synthase 1 (Homo sapiens, UniProt P23219)
# Sequence (P23219 whole entry): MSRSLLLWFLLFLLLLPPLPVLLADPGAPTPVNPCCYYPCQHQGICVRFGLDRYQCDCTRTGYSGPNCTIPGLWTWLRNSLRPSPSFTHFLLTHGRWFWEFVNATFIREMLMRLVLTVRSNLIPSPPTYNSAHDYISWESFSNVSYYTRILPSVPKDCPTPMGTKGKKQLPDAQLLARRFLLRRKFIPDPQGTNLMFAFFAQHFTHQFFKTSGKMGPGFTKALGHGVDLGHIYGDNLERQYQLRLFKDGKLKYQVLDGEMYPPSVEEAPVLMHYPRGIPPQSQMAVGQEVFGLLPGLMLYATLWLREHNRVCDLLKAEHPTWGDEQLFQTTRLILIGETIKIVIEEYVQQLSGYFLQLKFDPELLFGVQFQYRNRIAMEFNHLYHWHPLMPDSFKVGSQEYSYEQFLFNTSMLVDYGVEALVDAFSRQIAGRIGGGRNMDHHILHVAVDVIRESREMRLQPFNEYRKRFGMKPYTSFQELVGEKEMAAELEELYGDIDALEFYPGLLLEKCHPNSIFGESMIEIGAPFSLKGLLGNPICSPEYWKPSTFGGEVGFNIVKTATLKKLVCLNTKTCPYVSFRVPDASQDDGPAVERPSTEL
# procedure_summary: Inhibition of COX-1 (unknown origin) using arachidonic acid as substrate measured after 10 mins by fluorometric based multimode microplate reader
IC50 for assorted compounds

Below are worked cases with known answers.
COc1cc(/C=N/Nc2nc(-c3ccc(S(C)(=O)=O)cc3)cs2)cc(OC)c1OC; > 1000 µM
COc1ccc(OC)c(/C=N/Nc2nc(-c3ccc(S(C)(=O)=O)cc3)cs2)c1; > 100 µM
COc1ccc(/C=N/Nc2nc(-c3ccc(S(C)(=O)=O)cc3)cs2)cc1O; > 100 µM
COc1ccccc1/C=N/Nc1nc(-c2ccc(S(C)(=O)=O)cc2)cs1; > 1000 µM

# context switch: different compound, same IC50
So what does the record say about IC50 for COc1ccc(/C=N/Nc2nc(-c3ccc(S(C)(=O)=O)cc3)cs2)cc1OC ?
> 100 µM

---

# target_under_test: Prostaglandin G/H synthase 1 (Homo sapiens)
# procedure_summary: Inhibition of COX-1 (unknown origin) using arachidonic acid as substrate at 1000 uM measured after 10 mins by fluorometric based multimode microplate reader relative to control
metric: inhibition (%)
Report the value in % with no unit label.

Below are worked cases with known answers.
CS(=O)(=O)c1ccc(-c2csc(N/N=C/c3cccc(O)c3)n2)cc1; 66.3
COc1ccc(OC)c(/C=N/Nc2nc(-c3ccc(S(C)(=O)=O)cc3)cs2)c1; 60
CS(=O)(=O)c1ccc(-c2csc(N/N=C/c3ccc(O)cc3)n2)cc1; 48.9
CS(=O)(=O)c1ccc(-c2csc(N/N=C/c3ccc(O)cc3O)n2)cc1; 47.1
COc1ccc(/C=N/Nc2nc(-c3ccc(S(C)(=O)=O)cc3)cs2)c(OC)c1; 44.6

So what does the record say about inhibition for COc1cccc(/C=N/Nc2nc(-c3ccc(S(C)(=O)=O)cc3)cs2)c1OC ?
57.4

So what does the record say about inhibition for COc1ccc(/C=N/Nc2nc(-c3ccc(S(C)(=O)=O)cc3)cs2)cc1OC ?
55.6

So what does the record say about inhibition for COc1cc(/C=N/Nc2nc(-c3ccc(S(C)(=O)=O)cc3)cs2)cc(OC)c1OC ?
45.7

So what does the record say about inhibition for COc1cc(/C=N/Nc2nc(-c3ccc(S(C)(=O)=O)cc3)cs2)cc(OC)c1O ?
43.3

So what does the record say about inhibition for COc1ccc(O)c(/C=N/Nc2nc(-c3ccc(S(C)(=O)=O)cc3)cs2)c1 ?
53

So what does the record say about inhibition for COc1ccc(/C=N/Nc2nc(-c3ccc(S(C)(=O)=O)cc3)cs2)cc1O ?
61.3

So what does the record say about inhibition for COc1ccccc1/C=N/Nc1nc(-c2ccc(S(C)(=O)=O)cc2)cs1 ?
43.1

---

# target_under_test: Prostaglandin G/H synthase 1 (Homo sapiens, UniProt P23219)
# procedure_summary: Inhibition of COX-1 (unknown origin) using arachidonic acid as substrate at 100 uM measured after 10 mins by fluorometric based multimode microplate reader relative to control
metric: inhibition (%)
Report the value in % with no unit label.

CS(=O)(=O)c1ccc(-c2csc(N/N=C/c3cccc(O)c3)n2)cc1; 40.9
COc1ccc(O)c(/C=N/Nc2nc(-c3ccc(S(C)(=O)=O)cc3)cs2)c1; 43
CS(=O)(=O)c1ccc(-c2csc(N/N=C/c3ccc(O)cc3)n2)cc1; 32.2
COc1ccc(OC)c(/C=N/Nc2nc(-c3ccc(S(C)(=O)=O)cc3)cs2)c1; 35

Enter reported inhibition observed with Prostaglandin G/H synthase 1 (Homo sapiens, UniProt P23219) for COc1ccccc1/C=N/Nc1nc(-c2ccc(S(C)(=O)=O)cc2)cs1
30.8

Enter reported inhibition observed with Prostaglandin G/H synthase 1 (Homo sapiens, UniProt P23219) for CS(=O)(=O)c1ccc(-c2csc(N/N=C/c3ccc(O)cc3O)n2)cc1
31.4

Enter reported inhibition observed with Prostaglandin G/H synthase 1 (Homo sapiens, UniProt P23219) for COc1cc(/C=N/Nc2nc(-c3ccc(S(C)(=O)=O)cc3)cs2)cc(OC)c1OC
35.8

Enter reported inhibition observed with Prostaglandin G/H synthase 1 (Homo sapiens, UniProt P23219) for COc1cc(/C=N/Nc2nc(-c3ccc(S(C)(=O)=O)cc3)cs2)cc(OC)c1O
32.3

Enter reported inhibition observed with Prostaglandin G/H synthase 1 (Homo sapiens, UniProt P23219) for COc1ccc(/C=N/Nc2nc(-c3ccc(S(C)(=O)=O)cc3)cs2)cc1OC
40
